Sourced from patent US9006250B2

# Test system: ZEAMX: maize, corn (Zea mays)
# PROCEDURE_SUMMARY: Post-Emergent Test II herbicidal activity
# Type: in vivo
# CONDITION_SUMMARY: post-emergence, 336 h, 140 g ai/ha, 14 days, read-out: Visual Growth Reduction (%) 14 Days After Application ZEAMX
MEASURED_ATTRIBUTE: pest or weed control at 140 g/ha

Example cases with answers are listed next.
{"SMILES_RECORD": "COc1cc2nonc2cc1-c1cc(N)c(Cl)c(C(=O)O)n1", "TARGET_OR_TEST_SYSTEM": "ZEAMX: maize, corn (Zea mays)", "pest or weed control at 140 g/ha": "0 to 29%"}
{"SMILES_RECORD": "COC(=O)c1nc(-c2ccc3nsnc3c2)c(F)c(N)c1Cl", "TARGET_OR_TEST_SYSTEM": "ZEAMX: maize, corn (Zea mays)", "pest or weed control at 140 g/ha": "75 to 84%"}
{"SMILES_RECORD": "COC(=O)c1nc(-c2cc3nsnc3cc2F)cc(N)c1Cl", "TARGET_OR_TEST_SYSTEM": "ZEAMX: maize, corn (Zea mays)", "pest or weed control at 140 g/ha": "85 to 94%"}
{"SMILES_RECORD": "Nc1c(F)c(-c2ccc3nonc3c2)nc(C(=O)O)c1Cl", "TARGET_OR_TEST_SYSTEM": "ZEAMX: maize, corn (Zea mays)", "pest or weed control at 140 g/ha": "60 to 74%"}
{"SMILES_RECORD": "COC(=O)c1nc(-c2ccc3nonc3c2)c(F)c(N)c1Cl", "TARGET_OR_TEST_SYSTEM": "ZEAMX: maize, corn (Zea mays)", "pest or weed control at 140 g/ha": "60 to 74%"}
{"SMILES_RECORD": "COC(=O)c1nc(-c2cc3nonc3cc2F)c(F)c(N)c1Cl", "TARGET_OR_TEST_SYSTEM": "ZEAMX: maize, corn (Zea mays)", "pest or weed control at 140 g/ha": "75 to 84%"}

Req: pest or weed control at 140 g/ha for COC(=O)c1nc(-c2cc3nonc3cc2F)cc(N)c1Cl ?
Resp: 85 to 94%

Req: pest or weed control at 140 g/ha for Nc1c(F)c(-c2ccc3nsnc3c2)nc(C(=O)O)c1Cl ?
Resp: 75 to 84%

Req: pest or weed control at 140 g/ha for COC(=O)c1nc(-c2cc3nonc3cc2Cl)cc(N)c1Cl ?
Resp: 0 to 29%

Req: pest or weed control at 140 g/ha for COC(=O)c1nc(-c2ccc3nsnc3c2F)cc(N)c1Cl ?
Resp: 0 to 29%

---

# System: CHEAL: lambsquarters (Chenopodium album)
# PROCEDURE_SUMMARY: Post-Emergent Test II herbicidal activity
# Assay type: in vivo
# CONDITION_SUMMARY: post-emergence, 336 h, 35 g ai/ha, 14 days, read-out: Visual Growth Reduction (%) 14 Days After Application CHEAL
MEASURED_ATTRIBUTE: pest or weed control at 35 g/ha

{"COMPOUND": "COC(=O)c1nc(-c2ccc3nonc3c2)c(F)c(N)c1Cl [Compound 1]", "VALUE_MEASURED": "95 to 100%"}

Req: Quick check: pest or weed control at 35 g/ha on CHEAL: lambsquarters (Chenopodium album), item COC(=O)c1nc(-c2cc3nonc3cc2F)c(F)c(N)c1Cl [Compound 3] ?
Resp: 85 to 94%

Req: Quick check: pest or weed control at 35 g/ha on CHEAL: lambsquarters (Chenopodium album), item COC(=O)c1nc(-c2cccc3nonc23)cc(N)c1Cl [Compound 16] ?
Resp: 60 to 74%

Req: Quick check: pest or weed control at 35 g/ha on CHEAL: lambsquarters (Chenopodium album), item COC(=O)c1nc(-c2cc3nonc3cc2Cl)cc(N)c1Cl [Compound 8] ?
Resp: 0 to 29%

Req: Quick check: pest or weed control at 35 g/ha on CHEAL: lambsquarters (Chenopodium album), item COC(=O)c1nc(-c2ccc3nonc3c2C)cc(N)c1Cl [Compound 17] ?
Resp: 85 to 94%

Req: Quick check: pest or weed control at 35 g/ha on CHEAL: lambsquarters (Chenopodium album), item COc1cc2nonc2cc1-c1cc(N)c(Cl)c(C(=O)O)n1 [Compound 5] ?
Resp: 0 to 29%

Req: Quick check: pest or weed control at 35 g/ha on CHEAL: lambsquarters (Chenopodium album), item Nc1c(F)c(-c2ccc3nsnc3c2)nc(C(=O)O)c1Cl [Compound 12] ?
Resp: 85 to 94%

Req: Quick check: pest or weed control at 35 g/ha on CHEAL: lambsquarters (Chenopodium album), item COC(=O)c1nc(-c2cc3nonc3cc2F)nc(N)c1OC [Compound 10] ?
Resp: 0 to 29%

Req: Quick check: pest or weed control at 35 g/ha on CHEAL: lambsquarters (Chenopodium album), item COC(=O)c1nc(-c2cc3nsnc3cc2F)cc(N)c1Cl [Compound 13] ?
Resp: 85 to 94%

Req: Quick check: pest or weed control at 35 g/ha on CHEAL: lambsquarters (Chenopodium album), item COC(=O)c1nc(-c2ccc3nsnc3c2)c(F)c(N)c1Cl [Compound 11] ?
Resp: 85 to 94%

---

MEASURED_ATTRIBUTE: melting point

Example cases with answers are listed next.
{"SMILES_RECORD": "COC(=O)c1nc(-c2cc3nonc3cc2F)c(F)c(N)c1Cl", "melting point": "180 to 182 °C"}
{"SMILES_RECORD": "COC(=O)c1nc(-c2ccc3nonc3c2C)cc(N)c1Cl", "melting point": "182 to 185 °C"}
{"SMILES_RECORD": "COC(=O)c1nc(-c2cccc3nonc23)cc(N)c1Cl", "melting point": "157 to 160 °C"}
{"SMILES_RECORD": "COC(=O)c1nc(-c2cc3nsnc3cc2F)cc(N)c1Cl", "melting point": "218 to 220 °C"}

Lab note: next compound to report on.
Req: melting point for Nc1cc(-c2cc3nonc3cc2F)nc(C(=O)O)c1Cl ?
Resp: 177 to 178 °C

---

# Tested on: HELAN: sunflower (Helianthus annuus)
# PROCEDURE_SUMMARY: Post-Emergent Test II herbicidal activity
# Format: in vivo
# CONDITION_SUMMARY: post-emergence, 336 h, 140 g ai/ha, 14 days, read-out: Visual Growth Reduction (%) 14 Days After Application HELAN
MEASURED_ATTRIBUTE: pest or weed control at 140 g/ha

Example cases with answers are listed next.
{"SMILES_RECORD": "COC(=O)c1nc(-c2cc3nonc3cc2F)c(F)c(N)c1Cl", "pest or weed control at 140 g/ha": "95 to 100%"}
{"SMILES_RECORD": "COC(=O)c1nc(-c2ccc3nsnc3c2F)cc(N)c1Cl", "pest or weed control at 140 g/ha": "30 to 44%"}
{"SMILES_RECORD": "COC(=O)c1nc(-c2cccc3nonc23)cc(N)c1Cl", "pest or weed control at 140 g/ha": "60 to 74%"}

Req: pest or weed control at 140 g/ha for COC(=O)c1nc(-c2cc3nonc3cc2F)cc(N)c1Cl ?
Resp: 85 to 94%

Req: pest or weed control at 140 g/ha for COC(=O)c1nc(-c2cc3nsnc3cc2F)cc(N)c1Cl ?
Resp: 75 to 84%

Req: pest or weed control at 140 g/ha for COC(=O)c1nc(-c2ccc3nonc3c2Cl)cc(N)c1Cl ?
Resp: 60 to 74%

Req: pest or weed control at 140 g/ha for COC(=O)c1nc(-c2ccc3nonc3c2C)cc(N)c1Cl ?
Resp: 60 to 74%

Req: pest or weed control at 140 g/ha for Nc1c(F)c(-c2ccc3nsnc3c2)nc(C(=O)O)c1Cl ?
Resp: 95 to 100%

Req: pest or weed control at 140 g/ha for COC(=O)c1nc(-c2ccc3nonc3c2)c(F)c(N)c1Cl ?
Resp: 95 to 100%

Req: pest or weed control at 140 g/ha for Nc1c(F)c(-c2ccc3nonc3c2)nc(C(=O)O)c1Cl ?
Resp: 95 to 100%

Req: pest or weed control at 140 g/ha for COC(=O)c1nc(-c2ccc3nonc3c2OC)cc(N)c1Cl ?
Resp: 0 to 29%

Req: pest or weed control at 140 g/ha for COC(=O)c1nc(-c2ccc3nsnc3c2)c(F)c(N)c1Cl ?
Resp: 95 to 100%

Req: pest or weed control at 140 g/ha for COc1cc2nonc2cc1-c1cc(N)c(Cl)c(C(=O)O)n1 ?
Resp: 0 to 29%

Req: pest or weed control at 140 g/ha for COC(=O)c1nc(-c2cc3nonc3cc2Cl)cc(N)c1Cl ?
Resp: 0 to 29%
